- TARGET OR TEST SYSTEM: mouse TAAR1 (Mus musculus (Mouse))
- ASSAY OVERVIEW: Radioligand binding assay on mouse TAAR1
- TEST PARAMETERS: mouse TAAR1, HEK-293 membranes; first value of the pair (before the slash); read-out: Ki (μM) mouse/rat
Where a name gives a salt, the structure may show the parent alone.
Provide the reported Ki of each item.

Check out these entries, answers already filled in.
{"columns": ["MOLECULE", "VALUE MEASURED"],
 "data": [
  ["O=C(Nc1ccc(C(F)(F)F)nc1)Nc1ccc([C@H]2CNCCO2)cc1Cl [Example 50]", "0.0018 µM"],
  ["COc1cc(C(=O)Nc2ccc([C@H]3CNCCO3)cc2F)cc(Cl)n1 [Example 25]", "0.0034 µM"],
  ["Cc1cc(C(=O)Nc2ccc([C@H]3CNCCO3)c(Cl)c2)cc(C(N)=O)n1 [Example 118, hydrochloride]", "0.0416 µM"],
  ["O=C(Nc1ccc([C@H]2CNCCO2)c(Cl)c1)c1cnn(-c2cncc(C(F)(F)F)n2)c1 [Example 128, hydrochloride]", "0.0088 µM"],
  ["N#Cc1ccnc(C(=O)Nc2ccc([C@H]3CNCCO3)cc2F)c1 [Example 79, hydrochloride]", "0.0022 µM"]
]}

Now turn to the next molecule.
N#Cc1ccc(-n2cc(C(=O)Nc3ccc([C@H]4CNCCO4)c(Cl)c3)cn2)c(F)c1 [Example 109, hydrochloride] has a reported Ki of 0.0026 µM

====

- TARGET OR TEST SYSTEM: mouse TAAR1 (Mus musculus (Mouse), UniProt Q923Y8)
- Sequence (Q923Y8 whole entry): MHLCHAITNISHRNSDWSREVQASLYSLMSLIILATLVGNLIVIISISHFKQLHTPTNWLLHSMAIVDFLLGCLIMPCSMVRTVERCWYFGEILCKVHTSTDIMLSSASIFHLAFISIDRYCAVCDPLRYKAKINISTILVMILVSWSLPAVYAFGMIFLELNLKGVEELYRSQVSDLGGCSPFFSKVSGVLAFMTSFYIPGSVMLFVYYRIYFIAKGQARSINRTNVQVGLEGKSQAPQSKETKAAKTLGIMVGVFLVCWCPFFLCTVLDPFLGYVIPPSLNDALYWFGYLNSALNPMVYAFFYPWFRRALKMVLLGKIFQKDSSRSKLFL
- ASSAY OVERVIEW: Radioligand binding assay on mouse TAAR1
- TEST PARAMETERS: mouse TAAR1, HEK-293 membranes; first value of the pair (before the slash); read-out: Ki (μM) mouse/rat
- Experimental: For the construction of expression plasmids the coding sequences of human, rat and mouse TAAR 1 were amplified from genomic DNA essentially as described by Lindemann et al.. The Expand High Fidelity PCR System (Roche Diagnostics) was used with 1.5 mM Mg^2+ and purified PCR products were cloned into pCR2.1-TOPO cloning vector (Invitrogen) following the instructions of the manufacturer. […]
Structures can show the parent of a compound that is named as a salt.
MEASURE NAME: Ki (µM)
Numbers only, in µM.

Check out these entries, answers already filled in.
{"columns": ["MOLECULE", "TARGET OR TEST SYSTEM", "READOUT UNITS", "Ki"],
 "data": [
  ["O=C(Nc1ccc([C@H]2CNCCO2)cc1F)c1cnn(-c2cncc(C(F)(F)F)n2)c1 [Example 125, hydrochloride]", "mouse TAAR1 (Mus musculus (Mouse), UniProt Q923Y8)", "µM", 0.0182],
  ["N#Cc1ccc(OC(F)F)c(NC(=O)Nc2ccc([C@@H]3CNCCO3)cc2Cl)c1 [Example 47]", "mouse TAAR1 (Mus musculus (Mouse), UniProt Q923Y8)", "µM", 0.002],
  ["N#Cc1cccc(NC(=O)Nc2ccc([C@@H]3CNCCO3)cc2F)c1 [Example 3]", "mouse TAAR1 (Mus musculus (Mouse), UniProt Q923Y8)", "µM", 0.0016],
  ["O=C(Nc1ccc(Cl)cn1)Nc1ccc([C@H]2CNCCO2)cc1Cl [Example 64]", "mouse TAAR1 (Mus musculus (Mouse), UniProt Q923Y8)", "µM", 0.0015],
  ["COc1cc(C(=O)Nc2ccc([C@H]3CNCCO3)cc2F)cc(C(N)=O)n1 [Example 120, hydrochloride]", "mouse TAAR1 (Mus musculus (Mouse), UniProt Q923Y8)", "µM", 0.0851],
  ["N#Cc1ccc(OC(F)F)c(NC(=O)Nc2ccc([C@H]3CNCCO3)cc2F)c1 [Example 71, hydrochloride]", "mouse TAAR1 (Mus musculus (Mouse), UniProt Q923Y8)", "µM", 0.0018]
]}

State the recorded Ki for every item in the following list.
1. O=C(Nc1ccc([C@H]2CNCCO2)c(F)c1)c1cnn(-c2cncc(C(F)(F)F)n2)c1 [Example 127, hydrochloride]
2. O=C(Nc1ccc(C(F)(F)F)nc1)Nc1ccc([C@@H]2CNCCO2)cc1F [Example 10]

1: 0.007; 2: 0.0033

====

- TARGET OR TEST SYSTEM: mouse TAAR1 (Mus musculus (Mouse))
- ASSAY OVERVIEW: Radioligand binding assay on mouse TAAR1
- TEST PARAMETERS: mouse TAAR1, HEK-293 membranes; first value of the pair (before the slash); read-out: Ki (μM) mouse/rat
Where a name gives a salt, the structure may show the parent alone.
Provide the reported Ki of each item.
One number for each entry, in µM.

{"columns": ["COMPOUND", "READOUT UNITS", "Ki"],
 "data": [
  ["O=C(Nc1ccc([C@@H]2CNCCO2)cc1Cl)c1ccn(-c2ccc(F)cc2)n1", "µM", 0.032],
  ["COc1ccc(C#N)cc1NC(=O)Nc1ccc([C@@H]2CNCCO2)cc1Cl", "µM", 0.0023],
  ["N#Cc1ccc(OC(F)F)c(NC(=O)Nc2ccc([C@@H]3CNCCO3)cc2Br)c1", "µM", 0.0008]
]}

Now turn to the next compound.
Cc1nc(C(=O)Nc2ccc([C@H]3CNCCO3)c(F)c2)ccc1C#N [Example 136, hydrochloride] has a reported Ki of 0.0075

====

- TARGET OR TEST SYSTEM: rat TAAR1 (Rattus norvegicus (Rat), UniProt Q923Y9)
- Sequence (Q923Y9 whole entry): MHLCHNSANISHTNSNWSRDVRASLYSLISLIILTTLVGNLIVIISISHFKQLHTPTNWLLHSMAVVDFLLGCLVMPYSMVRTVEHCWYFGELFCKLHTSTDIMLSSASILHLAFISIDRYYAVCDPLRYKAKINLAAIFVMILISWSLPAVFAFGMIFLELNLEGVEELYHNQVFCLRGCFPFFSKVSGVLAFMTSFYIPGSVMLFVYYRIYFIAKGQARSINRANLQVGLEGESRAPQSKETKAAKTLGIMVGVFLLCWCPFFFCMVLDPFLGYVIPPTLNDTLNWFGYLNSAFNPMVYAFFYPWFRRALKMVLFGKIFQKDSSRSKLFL
- ASSAY OVERVIEW: Radioligand binding assay on rat TAAR1
- TEST PARAMETERS: rat TAAR1 membranes, saturation curve, usual value; read-out: dissociation constant (Kd) of the radioligand
pKd: −log10 of the molar value.
MEASURE NAME: pKd

Note to self: pKd of CCN(C[C@H]1COC(N)=N1)c1ccccc1 [reference compound] with rat TAAR1 (Rattus norvegicus (Rat), UniProt Q923Y9) was ~8.64

====

- TARGET OR TEST SYSTEM: mouse TAAR1 (Mus musculus (Mouse))
- ASSAY OVERVIEW: Radioligand binding assay on mouse TAAR1
- TEST PARAMETERS: mouse TAAR1, HEK-293 membranes; first value of the pair (before the slash); read-out: Ki (μM) mouse/rat
Where a name gives a salt, the structure may show the parent alone.
Provide the reported log10(Ki) of each item.
// do not treat as linear: log10 of Ki, unit µM

Check out these entries, answers already filled in.
{"columns": ["COMPOUND", "TARGET OR TEST SYSTEM", "log10(Ki)"],
 "data": [
  ["O=C(NCc1cccc(OC(F)F)c1)Nc1ccc([C@H]2CNCCO2)cc1F [Example 78]", "mouse TAAR1 (Mus musculus (Mouse))", -2.92],
  ["Cc1cc(C(=O)Nc2ccc([C@H]3CNCCO3)c(F)c2)cc(C(N)=O)n1 [Example 114, hydrochloride]", "mouse TAAR1 (Mus musculus (Mouse))", -1.19],
  ["O=C(Nc1cnc(C(F)(F)F)nc1)Nc1ccc([C@H]2CNCCO2)cc1Cl [Example 51]", "mouse TAAR1 (Mus musculus (Mouse))", -2.17]
]}

State the recorded log10(Ki) for every item in the following list.
1. CCc1cc(C(=O)Nc2ccc([C@H]3CNCCO3)c(F)c2)cc(C(N)=O)n1 [Example 117, hydrochloride]
2. CCOc1ccc(C(=O)Nc2ccc([C@@H]3CNCCO3)c(Cl)c2)cn1 [Example 92, hydrochloride]
3. O=C(Nc1ccc([C@H]2CNCCO2)c(F)c1)c1cnn(-c2cc(C(F)(F)F)ncn2)c1 [Example 129, hydrochloride]
4. O=C(Nc1ccc(C(F)(F)F)nc1)Nc1ccc([C@H]2CNCCO2)cc1F [Example 11]
5. O=C(Nc1ccc(Cl)nc1)Nc1ccc([C@H]2CNCCO2)cc1F [Example 9]

-1.55
-2.32
-2.14
-2.46
-2.77

====

- TARGET OR TEST SYSTEM: rat TAAR1 (Rattus norvegicus (Rat), UniProt Q923Y9)
- ASSAY OVERVIEW: Radioligand binding assay on rat TAAR1
- TEST PARAMETERS: rat TAAR1, HEK-293 membranes; second value of the pair (line below); read-out: Ki (μM) mouse/rat
Counter-ions that a name gives are not always drawn.
Provide the reported log10(Ki) of each item.
// do not treat as linear: log10 of Ki, unit µM

{"columns": ["COMPOUND", "TARGET OR TEST SYSTEM", "log10(Ki)"],
 "data": [
  ["O=C(NCc1cccc(OC(F)F)c1)Nc1ccc([C@H]2CNCCO2)cc1F", "rat TAAR1 (Rattus norvegicus (Rat), UniProt Q923Y9)", -2.41],
  ["O=C(Nc1ccc([C@H]2CNCCO2)cc1F)c1n[nH]c2cc(F)ccc12", "rat TAAR1 (Rattus norvegicus (Rat), UniProt Q923Y9)", -3.05],
  ["O=C(Nc1ccc(C(F)(F)F)nc1)Nc1ccc([C@@H]2CNCCO2)cc1Cl", "rat TAAR1 (Rattus norvegicus (Rat), UniProt Q923Y9)", -2.82]
]}

State the recorded log10(Ki) for every item in the following list.
1. N#Cc1ccc(-n2cc(C(=O)Nc3ccc([C@H]4CNCCO4)cc3Cl)cn2)cc1 [Example 103, hydrochloride]
2. O=C(Nc1ccc([C@H]2CNCCO2)cc1F)c1cnn(-c2ccc(OC(F)F)cc2)c1
3. O=C(Nc1ccc([C@H]2CNCCO2)cc1F)c1cnn(-c2cncc(C(F)(F)F)n2)c1 [Example 125, hydrochloride]
4. N#Cc1cc(NC(=O)Nc2ccc([C@@H]3CNCCO3)cc2F)ccc1F
5. N#Cc1ccc(OC(F)F)c(NC(=O)Nc2ccc([C@H]3CNCCO3)cc2F)c1 [Example 71, hydrochloride]

1. -2.51
2. -2.74
3. -2.12
4. -3.15
5. -2.92

Recorded values, source patent US9029370B2.
